- Tested on: NCI-H1734
- testName: relative viability (nuclei count vs DMSO), 5 days (fraction); higher = more cells survive
- statedConditions: first compound 0.04 µM
endpoint: relative viability
Just the number, please, no unit attached.

What value of relative viability on NCI-H1734 does C[C@@H]1CN(CC(=O)Nc2ccc3c(c2)Cc2cccc(-c4cc(=O)cc(N5CCOCC5)o4)c2S3)C[C@H](C)O1 + CCNC(=O)c1noc(-c2cc(C(C)C)c(O)cc2O)c1-c1ccc(CN2CCOCC2)cc1 [Luminespib] (partner 0.01 µM) have?
0.264

Others:
What value of relative viability on NCI-H1734 does Clc1ccc(Nc2nnc(Cc3ccncc3)c3ccccc23)cc1 [Vatalanib] + C[C@]1(O)C[C@@H](c2nc(-c3ccc4ccc(-c5ccccc5)nc4c3)c3c(N)nccn32)C1 [Linsitinib] (partner 1 µM) have?
0.971

What value of relative viability on NCI-H1734 does COc1cc(N2CCC(C(N)=O)CC2)ccc1Nc1nc(N)c(Cl)c(Nc2ccccc2S(=O)(=O)C(C)C)n1 [HG-5-88-01] + CS(=O)(=O)CCNCc1ccc(-c2ccc3ncnc(Nc4ccc(OCc5cccc(F)c5)c(Cl)c4)c3c2)o1 [Lapatinib] (partner 2 µM) have?
1

What value of relative viability on NCI-H1734 does COc1cc(N2CCC(C(N)=O)CC2)ccc1Nc1nc(N)c(Cl)c(Nc2ccccc2S(=O)(=O)C(C)C)n1 [HG-5-88-01] + CC1(C)CCC(c2ccc(Cl)cc2)=C(CN2CCN(c3ccc(C(=O)NS(=O)(=O)c4ccc(N[C@H](CCN5CCOCC5)CSc5ccccc5)c(S(=O)(=O)C(F)(F)F)c4)cc3)CC2)C1 [Navitoclax] (partner 0.5 µM) have?
0.771

What value of relative viability on NCI-H1734 does C[C@@H]1CN(CC(=O)Nc2ccc3c(c2)Cc2cccc(-c4cc(=O)cc(N5CCOCC5)o4)c2S3)C[C@H](C)O1 + COc1cccc2cc(-c3nc([C@H]4CC[C@H](C(=O)O)CC4)n4ncnc(N)c34)[nH]c12 [OSI-027] (partner 0.5 µM) have?
0.655

What value of relative viability on NCI-H1734 does COc1cc(N2CCC(C(N)=O)CC2)ccc1Nc1nc(N)c(Cl)c(Nc2ccccc2S(=O)(=O)C(C)C)n1 [HG-5-88-01] + Cc1nc(NC(=O)N2CCC[C@H]2C(N)=O)sc1-c1ccnc(C(C)(C)C(F)(F)F)c1 [Alpelisib] (partner 2 µM) have?
0.633

What value of relative viability on NCI-H1734 does COc1cc(N2CCC(C(N)=O)CC2)ccc1Nc1nc(N)c(Cl)c(Nc2ccccc2S(=O)(=O)C(C)C)n1 [HG-5-88-01] + N=C(N)NC(=N)NCCc1ccccc1 [Phenformin] (partner 250 µM) have?
0.345

What value of relative viability on NCI-H1734 does C[C@@H]1CN(CC(=O)Nc2ccc3c(c2)Cc2cccc(-c4cc(=O)cc(N5CCOCC5)o4)c2S3)C[C@H](C)O1 + O=C(CCCCCCC(=O)Nc1ccccc1)NO [Vorinostat] (partner 1 µM) have?
0.602

====

- Test system: LU99A
- testName: relative viability (nuclei count vs DMSO), 5 days (fraction); higher = more cells survive
- statedConditions: first compound 0.04 µM
endpoint: relative viability

Here is how some molecules turned out for relative viability.
Any idea what relative viability was measured for Clc1ccc(Nc2nnc(Cc3ccncc3)c3ccccc23)cc1 [Vatalanib] + COc1cc2c(Oc3ccc(NC(=O)C4(C(=O)Nc5ccc(F)cc5)CC4)cc3F)ccnc2cc1OCCCN1CCOCC1 [Foretinib] (partner 0.25 µM) ?
0.809

Any idea what relative viability was measured for Clc1ccc(Nc2nnc(Cc3ccncc3)c3ccccc23)cc1 [Vatalanib] + Nc1nc2[nH]cc(CCc3ccc(C(=O)N[C@@H](CCC(=O)O)C(=O)O)cc3)c2c(=O)[nH]1 [Pemetrexed] (partner 0.2 µM) ?
0.182

Here is the next item to consider.
Any idea what relative viability was measured for C[C@@H]1CN(CC(=O)Nc2ccc3c(c2)Cc2cccc(-c4cc(=O)cc(N5CCOCC5)o4)c2S3)C[C@H](C)O1 + CCNC(=O)c1noc(-c2cc(C(C)C)c(O)cc2O)c1-c1ccc(CN2CCOCC2)cc1 [Luminespib] (partner 0.01 µM) ?
0.304
